- target-under-test: human D2R/β-arrestin (Homo sapiens (Human))
- Sequence (P14416 whole entry): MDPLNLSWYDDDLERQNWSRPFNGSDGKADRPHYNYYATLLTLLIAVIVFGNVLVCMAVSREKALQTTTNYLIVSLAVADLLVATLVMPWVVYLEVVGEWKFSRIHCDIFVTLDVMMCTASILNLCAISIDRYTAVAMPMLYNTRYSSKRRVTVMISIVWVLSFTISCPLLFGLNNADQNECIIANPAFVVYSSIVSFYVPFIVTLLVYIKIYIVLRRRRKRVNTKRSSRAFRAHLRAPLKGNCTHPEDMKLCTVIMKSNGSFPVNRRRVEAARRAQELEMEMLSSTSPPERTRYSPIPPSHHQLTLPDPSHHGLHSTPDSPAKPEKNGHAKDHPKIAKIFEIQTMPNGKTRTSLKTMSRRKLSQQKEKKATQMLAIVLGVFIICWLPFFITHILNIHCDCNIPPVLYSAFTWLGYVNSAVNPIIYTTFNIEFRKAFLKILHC
- method: Gi/cAMP agonist assay (Lance Ultra cAMP, forskolin)
- Format: cell-based
- conditions: CHO-K1 cells expressing human D2R/β-arrestin; agonist mode, 2.5 μM forskolin
property: EC50

Consider the reported EC50 for these compounds:
{"columns": ["compound", "EC50"],
 "data": [
  ["COc1cccc(OCCN2CCC(C)(Oc3ccc(Cl)cc3)C2)c1 (centres unmarked)", "< 100 nM"],
  ["CC(C)C1(Oc2ccc(Cl)cc2)CCN(CCOc2ccccc2C(F)(F)F)CC1", "1000 to 10000 nM"],
  ["CC1(Oc2ccc(Cl)cc2)CCN(CCCCOc2ccccc2Cl)C1 (centres unmarked)", "> 30000 nM"]
]}

Request: Query: EC50; subject: CC(=O)c1cc(F)ccc1OCCN1CCC(C)(Oc2ccc(Cl)cc2)CC1
Result: 100 to 1000 nM

Request: // same read-out, input: CC1(Oc2ccc(Cl)cc2)CCCN(CCOc2ccccc2F)C1 (centres unmarked) [Example 98a]
Result: > 30000 nM

Request: Consider next the compound Cc1ccc(OCCN2CCC(C)(Oc3ccc(Cl)cc3)CC2)cc1 in the same way.
Result: < 100 nM

Request: Further, for CC1(C(=O)NC2CC2)CCN(CC2COc3ccccc3O2)CC1 (single isomer, unassigned) [Compound 203b] ?
Result: > 30000 nM

Request: One more compound: CC1(Oc2cccc(Cl)c2)CCN(CCOc2ccccc2)C1 (centres unmarked)
Result: < 100 nM

Request: Now the same for CC1(Oc2ccc(Cl)cc2)CCN(CCOc2ccccc2)CC1
Result: < 100 nM

Request: // same read-out, input: Fc1ccccc1OCCN1CCC2(CC1)CCN2c1ccc(Cl)cc1
Result: > 30000 nM

Request: Again, but for CC1(Oc2ccc(Cl)cc2)CCN(CCOc2ccc3cnccc3c2)C1 (centres unmarked)
Result: > 30000 nM

Request: Item: CC1(Oc2ccc(Cl)cc2)CCN(CCOc2ccc(Cl)cc2)CC1
Result: < 100 nM

Request: And for CC1(Oc2ccccc2Cl)CCN(CCOc2ccccc2)C1 (centres unmarked) ?
Result: 100 to 1000 nM

Request: Param item: CC1(Oc2ccc(Cl)cc2)CCN(CCCc2ccccc2)C1 (centres unmarked)
Result: > 30000 nM
